# Test system: A549
# Measurement notes: Effective dose on human lung carcinoma (A549) cells
# Format: functional
# Experimental conditions: read-out: ED50 (the source's name)
pEC50: −log10 of the molar value.
Value type: pEC50

C[C@H](CC[C@@H](O)C(C)(C)O)[C@H]1CC[C@]2(C)C3CCC4C(C)(C)C(=O)C(Br)=C[C@]4(C)C3=CC[C@]12C (stereo partly drawn): 4.85

a = C[C@H](CC[C@@H](O)C(C)(C)O)[C@H]1CC[C@]2(C)C3CCC4C(C)(C)C(=O)C(C=O)=C[C@]4(C)C3=CC[C@]12C (stereo partly drawn)
b = COC(=O)C1=C[C@]2(C)C3=CC[C@]4(C)[C@@H]([C@H](C)CC[C@@H](O)C(C)(C)O)CC[C@]4(C)C3CCC2C(C)(C)C1=O (stereo partly drawn)
Task: Task for the reader: decide whether a or b has the larger pEC50. Choose, then provide that item's label.
Output: b
(b: 5.40, a: 4.88)
